The following compounds are listed with their measured pIC50 values.
Tested on: MDA-MB-468 cancer cell line
Test: Cell growth assay (WST-8)
Assay type: cell-based
Conditions: Homo sapiens, MDA-MB-468, 96 h; WST-8, 4 days; read-out: Inhibition of cell growth IC50, MDA-MB-468 cancer cell line
pIC50: −log10 of the molar value.

CNC(=O)[C@H](CCCN)NC(=O)[C@@H]1CC[C@@H]2CCCC[C@H](NC(=O)[C@H](Cc3ccc(OP(=O)(O)O)cc3)NC(=O)OCc3ccccc3)C(=O)N21	< 4.00
CN[C@@H](Cc1ccc(OC(C(=O)O)C(=O)O)cc1)C(=O)N[C@H]1CCCCC2CC[C@@H](C(=O)N[C@@H](CCCN)C(=O)NCc3ccccc3)N2C1=O (some centres unmarked)	< 4.00
CCCCCCCCNC(=O)[C@H](CCC(N)=O)NC(=O)[C@@H]1CCC2CCCC[C@H](NC(=O)[C@H](Cc3ccc(OP(=O)(O)O)cc3)NC)C(=O)N21 (some centres unmarked)	< 4.00

What value of pIC50 has been recorded for this entry: CN[C@@H](Cc1ccc(OP(=O)(O)O)cc1)C(=O)N[C@H]1CCCCC2CC[C@@H](C(=O)N[C@@H](CCC(N)=O)C(=O)NCc3ccccc3)N2C1=O (stereo in doubt)
< 4.00

Consider the compound CCCCCCCCCCCCCCCCN1CCN(CCC(=O)N[C@@H](Cc2ccc(OP(=O)(O)O)cc2)C(=O)N[C@H]2CCCCC3CC[C@@H](C(=O)NCCc4nnc[nH]4)N3C2=O)CC1 (some centres unmarked) and give its measured pIC50.
> 4.70

What pIC50 value was documented for this compound, `C[C@H](NC(=O)[C@@H]1CC[C@@H]2CCCC[C@H](NC(=O)[C@H](Cc3ccc(OP(=O)(O)O)cc3)NC(=O)OCc3ccccc3)C(=O)N21)C(=O)NCc1ccccc1` ?
< 5.00

Name the recorded pIC50 for `NC(=O)CC[C@H](NC(=O)[C@@H]1CC[C@@H]2CCCC[C@H](NC(=O)CCc3ccc(O)c(C(=O)O)c3)C(=O)N21)C(=O)NCc1ccccc1` .
< 4.00

Request the reported pIC50 associated with N[C@@H](Cc1ccc(OP(=O)(O)O)cc1)C(=O)N[C@H]1CCCCC2CC[C@@H](C(=O)N[C@@H](CCC(=O)NC(c3ccccc3)(c3ccccc3)c3ccccc3)C(=O)NCc3ccccc3)N2C1=O (some centres unmarked)
> 5.00

GET /values?readout=pIC50&item= COP(=O)(OC)Oc1ccc(C[C@H](N)C(=O)N[C@H]2CCCCC3CC[C@@H](C(=O)N[C@@H](C)C(=O)NCc4ccccc4)N3C2=O)cc1 (some centres unmarked)
< 4.00

Quick one: pIC50 of `CC(=O)N[C@@H](Cc1ccc(CP(=O)(O)O)cc1)C(=O)N[C@H]1CCCC[C@H]2CC[C@@H](C(=O)N[C@@H](CCC(N)=O)C(=O)NCc3ccccc3)N2C1=O` ?
< 4.00

Which measured pIC50 value corresponds to `CC(=O)N[C@@H](Cc1ccc(OCC(=O)O)cc1)C(=O)N[C@H]1CCCC[C@H]2CC[C@@H](C(=O)N[C@@H](CCC(N)=O)C(=O)NCc3ccccc3)N2C1=O` ?
< 4.00

Values were extracted from patent US20110319362A1.
